# System name: FIH (Homo sapiens)
# Construct: made in house
# Test method notes: SPE-MS FIH inhibition assay
# Type: biochemical
# Reported conditions: 0.15 μM FIH, 10.0 μM 2OG, 5.0 μM HIF-1α C-TAD788–822; SPE-MS; read-out: FIH IC50
Consider the following compounds and their measured IC50 readings.

>  <Compound>
O=C(O)c1cnn(-c2nc3cc(OC(F)(F)F)c(Cl)cc3[nH]2)c1 [JNJ-42041935, reference compound]

>  <Censoring operator>
=

>  <IC50 (µM)>
56.4

$$$$
>  <Compound>
O=C(O)CNC(=O)C1=C(O)CCN(Cc2ccc(Oc3ccc(Cl)cc3)nc2)C1=O [TP0463518, reference compound]

>  <Censoring operator>
=

>  <IC50 (µM)>
39.7

$$$$
>  <Compound>
O=C(O)CNC(=O)c1c(O)c2cc(F)ccc2n(CCC2CC2)c1=O [GSK360A, reference compound]

>  <Censoring operator>
>

>  <IC50 (µM)>
100

$$$$

###

# System name: FIH (Homo sapiens)
# Construct: made in house
# Test method notes: SPE-MS FIH inhibition assay
# Format: biochemical
Measured metric: IC50 (µM)

>  <Compound>
C[C@@H]1CN(S(=O)(=O)c2ccccc2)C[C@H]1C(=O)/N=c1\scc(CC(=O)O)n1O (relative stereo) [compound 30]

>  <Observed measurement>
1.7

$$$$
>  <Compound>
O=C(O)Cc1cs/c(=N\C(=O)CNc2ccccc2)n1O [compound 23]

>  <Observed measurement>
3.2

$$$$
>  <Compound>
O=C(O)Cc1csc(=NC(=O)C2CCN(S(=O)(=O)C3CCCC3)C2)n1O (stereo not shown) [compound 43]

>  <Observed measurement>
0.81

$$$$
>  <Compound>
O=C(O)Cc1csc(=NC(=O)C2CCN(S(=O)(=O)c3ccc(-c4ccccc4)cc3)C2)n1O (stereo not shown) [compound 38]

>  <Observed measurement>
0.26

$$$$

###

# System name: FIH (Homo sapiens, UniProt Q9NWT6)
# Construct: made in house
# Sequence (Q9NWT6 whole entry): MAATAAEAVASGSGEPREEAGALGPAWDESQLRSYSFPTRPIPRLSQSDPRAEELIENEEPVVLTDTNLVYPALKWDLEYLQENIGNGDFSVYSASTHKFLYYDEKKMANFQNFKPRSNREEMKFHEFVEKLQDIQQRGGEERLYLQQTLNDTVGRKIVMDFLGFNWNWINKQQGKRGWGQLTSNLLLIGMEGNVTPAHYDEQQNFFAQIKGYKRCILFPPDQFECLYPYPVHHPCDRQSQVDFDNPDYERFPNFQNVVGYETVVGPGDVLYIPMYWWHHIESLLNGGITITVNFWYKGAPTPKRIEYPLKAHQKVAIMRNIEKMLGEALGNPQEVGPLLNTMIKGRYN
# Test method notes: SPE-MS FIH inhibition assay
# Type: biochemical
# Reported conditions: as judged by IC50 values
# Protocol: Protein production and purification PAGE analysis) according to established procedures. FIH, PHD2, AspH, JMJD5 and KDM4A inhibition assays The in vitro FIH,1, 2 PHD2,1 AspH,38 JMJD536 and KDM4A39 inhibition assays were performed as […] KDM4A). Synthetic peptide substrates were used: HIF-1α C-terminal transactivation domain fragment […]
Measured metric: selectivity for FIH inhibition over PHD2 inhibition

>  <Compound>
O=C(O)Cc1csc(=NC(=O)C2CCN(S(=O)(=O)Cc3ccccc3)C2)n1O (centres unmarked)

>  <Observed measurement>
~25 fold

$$$$
>  <Compound>
O=C(O)Cc1cs/c(=N\C(=O)CS(=O)(=O)Cc2ccc3ccccc3c2)n1O [BNS, reference compound]

>  <Observed measurement>
~0.4 fold

$$$$
>  <Compound>
O=C(O)Cc1cs/c(=N\C(=O)C2CN(S(=O)(=O)c3ccccc3)C2)n1O

>  <Observed measurement>
12 fold

$$$$
>  <Compound>
O=C(O)Cc1csc(=NC(=O)C2CCN(S(=O)(=O)c3ccccc3)C2)n1O (centres unmarked)

>  <Observed measurement>
~25 fold

$$$$
>  <Compound>
O=C(O)Cc1cs/c(=N\C(=O)CCNS(=O)(=O)c2ccccc2)n1O

>  <Observed measurement>
~6 fold

$$$$

###

# System name: PHD2 (Homo sapiens, UniProt Q9GZT9)
# Sequence (Q9GZT9 181-426): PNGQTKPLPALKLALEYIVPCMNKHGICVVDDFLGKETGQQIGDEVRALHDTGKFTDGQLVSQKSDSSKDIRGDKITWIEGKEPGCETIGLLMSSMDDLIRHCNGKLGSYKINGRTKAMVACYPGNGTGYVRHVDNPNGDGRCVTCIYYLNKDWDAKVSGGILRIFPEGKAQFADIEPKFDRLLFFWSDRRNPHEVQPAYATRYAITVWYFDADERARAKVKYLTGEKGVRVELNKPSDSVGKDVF
# Test method notes: biochemical

>  <Molecule>
O=C(O)Cc1csc(=NC(=O)C2CCN(S(=O)(=O)c3ccc4ccccc4c3)C2)n1O (centres unmarked)

>  <System name>
PHD2 (Homo sapiens, UniProt Q9GZT9)

>  <Censoring operator>
=

>  <IC50 [µM]>
5.2

$$$$
>  <Molecule>
O=C(CS(=O)(=O)c1ccccc1)/N=c1\scc(Cn2ccnn2)n1O

>  <System name>
PHD2 (Homo sapiens, UniProt Q9GZT9)

>  <Censoring operator>
>

>  <IC50 [µM]>
100

$$$$
>  <Molecule>
O=C(O)Cc1csc(=NC(=O)C2CCN(S(=O)(=O)c3cccc(Cl)c3)C2)n1O (centres unmarked)

>  <System name>
PHD2 (Homo sapiens, UniProt Q9GZT9)

>  <Censoring operator>
=

>  <IC50 [µM]>
14.6

$$$$
>  <Molecule>
O=C(O)Cc1csc(=NC(=O)C2CCN(S(=O)(=O)c3ccc(Oc4ccccc4)cc3)C2)n1O (centres unmarked)

>  <System name>
PHD2 (Homo sapiens, UniProt Q9GZT9)

>  <Censoring operator>
=

>  <IC50 [µM]>
3.1

$$$$
>  <Molecule>
O=C(O)Cc1cs/c(=N\C(=O)CCC(=O)Nc2ccccc2)n1O

>  <System name>
PHD2 (Homo sapiens, UniProt Q9GZT9)

>  <Censoring operator>
=

>  <IC50 [µM]>
2.3

$$$$
>  <Molecule>
O=C(O)Cc1cs/c(=N\C(=O)CS(=O)(=O)Nc2ccccc2)n1O

>  <System name>
PHD2 (Homo sapiens, UniProt Q9GZT9)

>  <Censoring operator>
=

>  <IC50 [µM]>
0.57

$$$$
>  <Molecule>
N#CCc1cs/c(=N\C(=O)CS(=O)(=O)c2ccccc2)n1O

>  <System name>
PHD2 (Homo sapiens, UniProt Q9GZT9)

>  <Censoring operator>
>

>  <IC50 [µM]>
100

$$$$
>  <Molecule>
O=C(O)Cc1csc(=NC(=O)C2CCN(S(=O)(=O)c3ccc(Cl)cc3)C2)n1O (centres unmarked)

>  <System name>
PHD2 (Homo sapiens, UniProt Q9GZT9)

>  <Censoring operator>
=

>  <IC50 [µM]>
9.2

$$$$

###

Consider the following compounds and their measured pIC50 readings.
# System name: FIH (Homo sapiens)
# Construct: made in house
# Test method notes: SPE-MS FIH inhibition assay
# Assay type: biochemical
pIC50: −log10 of the molar value.
Measured metric: pIC50

>  <Compound>
O=C(O)CNC(=O)C(=O)O [NOG, N-oxalylglycine, reference compound]

>  <System name>
FIH (Homo sapiens)

>  <Censoring operator>
=

>  <Observed measurement>
6.44

$$$$
>  <Compound>
CCOC(=O)Cc1cs/c(=N\C(=O)CS(=O)(=O)c2ccccc2)n1O

>  <System name>
FIH (Homo sapiens)

>  <Censoring operator>
<

>  <Observed measurement>
4.00

$$$$
>  <Compound>
O=C(O)Cc1cs/c(=N\C(=O)CS(=O)(=O)c2ccccc2)n1O

>  <System name>
FIH (Homo sapiens)

>  <Censoring operator>
=

>  <Observed measurement>
6.55

$$$$
>  <Compound>
CNC(=O)Cc1cs/c(=N\C(=O)CS(=O)(=O)c2ccccc2)n1O

>  <System name>
FIH (Homo sapiens)

>  <Censoring operator>
<

>  <Observed measurement>
4.00

$$$$

###

# System name: JMJD5 (Homo sapiens, UniProt Q8N371)
# Sequence (Q8N371 whole entry): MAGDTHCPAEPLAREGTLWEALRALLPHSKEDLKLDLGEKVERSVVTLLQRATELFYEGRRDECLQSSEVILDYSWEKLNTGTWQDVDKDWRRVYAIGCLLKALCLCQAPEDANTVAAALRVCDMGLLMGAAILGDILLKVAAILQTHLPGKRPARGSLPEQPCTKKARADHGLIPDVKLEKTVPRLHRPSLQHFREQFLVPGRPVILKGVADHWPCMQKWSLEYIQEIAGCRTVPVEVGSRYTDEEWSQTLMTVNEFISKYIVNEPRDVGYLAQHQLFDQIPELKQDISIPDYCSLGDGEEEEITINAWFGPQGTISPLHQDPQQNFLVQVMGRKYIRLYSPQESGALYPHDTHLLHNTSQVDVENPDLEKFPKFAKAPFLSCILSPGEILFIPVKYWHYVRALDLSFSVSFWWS
# Test method notes: biochemical
# Reported conditions: read-out: JMJD5 IC50
pIC50: −log10 of the molar value.
Consider the following compounds and their measured pIC50 readings.

>  <Compound>
O=C(O)Cc1csc(=NC(=O)C2CCN(S(=O)(=O)C3CCCC3)C2)n1O (stereo not shown)

>  <System name>
JMJD5 (Homo sapiens, UniProt Q8N371)

>  <Censoring operator>
=

>  <pIC50>
4.76

$$$$
>  <Compound>
COC(=O)Cc1cs/c(=N\C(=O)CS(=O)(=O)c2ccccc2)n1O

>  <System name>
JMJD5 (Homo sapiens, UniProt Q8N371)

>  <Censoring operator>
<

>  <pIC50>
4.00

$$$$
>  <Compound>
O=C(O)Cc1cs/c(=N\C(=O)C2CCCN(S(=O)(=O)c3ccccc3)C2)n1O (stereo not shown)

>  <System name>
JMJD5 (Homo sapiens, UniProt Q8N371)

>  <Censoring operator>
=

>  <pIC50>
4.87

$$$$
>  <Compound>
O=C(O)Cc1cs/c(=N\C(=O)CNC(=O)c2ccccc2)n1O

>  <System name>
JMJD5 (Homo sapiens, UniProt Q8N371)

>  <Censoring operator>
=

>  <pIC50>
5.77

$$$$
>  <Compound>
N#CCc1cs/c(=N\C(=O)CS(=O)(=O)c2ccccc2)n1O

>  <System name>
JMJD5 (Homo sapiens, UniProt Q8N371)

>  <Censoring operator>
<

>  <pIC50>
4.00

$$$$
>  <Compound>
CC1(C(=O)/N=c2\scc(CC(=O)O)n2O)CN(S(=O)(=O)c2ccccc2)C1

>  <System name>
JMJD5 (Homo sapiens, UniProt Q8N371)

>  <Censoring operator>
=

>  <pIC50>
4.49

$$$$
>  <Compound>
O=C(O)Cc1cs/c(=N\C(=O)CS(=O)(=O)c2ccccc2)n1O

>  <System name>
JMJD5 (Homo sapiens, UniProt Q8N371)

>  <Censoring operator>
=

>  <pIC50>
6.32

$$$$
